# TARGET: T1, IL-10R2-Fc/His (UniProt Q08334 20-220, limits assumed)
# T1 sequence (looked up): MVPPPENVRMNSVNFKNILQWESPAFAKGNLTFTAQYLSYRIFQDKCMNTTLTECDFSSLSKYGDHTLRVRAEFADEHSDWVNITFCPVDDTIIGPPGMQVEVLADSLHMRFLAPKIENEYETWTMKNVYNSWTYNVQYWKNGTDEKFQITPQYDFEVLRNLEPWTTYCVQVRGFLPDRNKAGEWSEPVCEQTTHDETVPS
# ASSAY_TEXT: ELISA, IL-10R2-Fc/His coated
RESULT_TYPE: Decreased fold of binding to ligand after Conjugating with S48 (fold)
Number only, in fold; omit the unit.

Task: Name the reported Decreased fold of binding to ligand after Conjugating with S48 value associated with the binder IL-10 Arg106Cys-S48 (ligand, human, UniProt P22301 19-178, looked up, S48 on Cys 106, mature) SPGQGTQSENSCTHFPGNLPNMLRDLRDAFSRVKTFFQMKDQLDNLLLKESLLEDFKGYLGCQALSEMIQFYLEEVMPQAENQDPDIKAHVNSLGENLKTLRLRLCRCHRFLPCENKSKAVEQVKNAFNKLQEKGIYKAMSEFDIFINYIEAYMTMKIRN
Result: 3

Task: Name the reported Decreased fold of binding to ligand after Conjugating with S48 value associated with the binder IL-10 Ala29Cys-S48 (ligand, human, UniProt P22301 19-178, looked up, S48 on Cys 29, mature) SPGQGTQSENSCTHFPGNLPNMLRDLRDCFSRVKTFFQMKDQLDNLLLKESLLEDFKGYLGCQALSEMIQFYLEEVMPQAENQDPDIKAHVNSLGENLKTLRLRLRRCHRFLPCENKSKAVEQVKNAFNKLQEKGIYKAMSEFDIFINYIEAYMTMKIRN
Result: 3

Task: Name the reported Decreased fold of binding to ligand after Conjugating with S48 value associated with the binder IL-10 Glu96Cys-S48 (ligand, human, UniProt P22301 19-178, looked up, S48 on Cys 96, mature) SPGQGTQSENSCTHFPGNLPNMLRDLRDAFSRVKTFFQMKDQLDNLLLKESLLEDFKGYLGCQALSEMIQFYLEEVMPQAENQDPDIKAHVNSLGCNLKTLRLRLRRCHRFLPCENKSKAVEQVKNAFNKLQEKGIYKAMSEFDIFINYIEAYMTMKIRN
Result: 3

Ref: patent US20230158141A1
